# experimental-protocol: Half life value of the compound
# Format: ADME
# conditions: rat

{"molecule": "CSc1ccc(Cl)c(NC(=N)N(C)c2cccc([S+](C)[O-])c2)c1 (stereo in doubt; 10)", "half-life": "31 min"}

* * *

# experimental-system: Glutamate [NMDA] receptor
# experimental-protocol: In vitro displacement of [3H]MK-801 from N-methyl-D-aspartate glutamate receptor
# Assay type: protein-complex assay
pKi: −log10 of the molar value.
Recorded pKi by entry

{"compound": "CSc1ccc(Cl)c(NC(=N)N(C)c2cccc([S+](C)[O-])c2)c1 (stereo in doubt; 10)", "experimental-system": "Glutamate [NMDA] receptor", "pKi": 6.75}
{"compound": "CSc1ccc(Cl)c(NC(=N)N(C)c2cccc([S+](C)[O-])c2)c1 (stereo in doubt; 15)", "experimental-system": "Glutamate [NMDA] receptor", "pKi": 6.63}
{"compound": "CSc1cccc(N(C)C(=N)Nc2cc([S+](C)[O-])ccc2Cl)c1.Cl (centres undefined)", "experimental-system": "Glutamate [NMDA] receptor", "pKi": 6.08}
{"compound": "CSc1ccc(Cl)c(NC(=N)N(C)c2cccc([S+](C)[O-])c2)c1 (single isomer, unassigned; (-))", "experimental-system": "Glutamate [NMDA] receptor", "pKi": 6.49}

* * *

# experimental-system: Sodium channel alpha subunits; brain (Types I, II, III) (Homo sapiens, UniProt P35498+Q99250+Q9NY46)
# experimental-protocol: Neuronal sodium channel blocking activity by [14C]guanidinium flux assay
# Assay type: functional
The following molecules are shown together with reported IC50 values.
result-type: IC50

{"molecule": "CSc1cccc(N(C)C(=N)Nc2cc([S+](C)[O-])ccc2Cl)c1.Cl (stereo unspecified)", "result-type": "IC50", "result": "> 25 µM"}
{"molecule": "CSc1cccc(N(C)C(=N)Nc2cc(SC)ccc2Cl)c1", "result-type": "IC50", "result": "1.75 µM"}
{"molecule": "CSc1ccc(Cl)c(NC(=N)N(C)c2cccc([S+](C)[O-])c2)c1 (stereo in doubt; 10)", "result-type": "IC50", "result": "83.1 µM"}
{"molecule": "CN(C(=N)Nc1cc([S+](C)[O-])ccc1Cl)c1cccc([S+](C)[O-])c1 (stereo unspecified)", "result-type": "IC50", "result": "> 25 µM"}
{"molecule": "CSc1ccc(Cl)c(NC(=N)N(C)c2cccc([S+](C)[O-])c2)c1 (stereo in doubt; 15)", "result-type": "IC50", "result": "> 25 µM"}
{"molecule": "CSc1ccc(Cl)c(NC(=N)N(C)c2cccc([S+](C)[O-])c2)c1 (single isomer, unassigned; (-))", "result-type": "IC50", "result": "> 25 µM"}

Data provenance is ChEMBL document CHEMBL1134748.
